Below, each entry is listed with its recorded pEC50.
Test system: AMPA receptors
Test: Field EPSP in rat hippocampal slices (field CA1): amplitude and area of AMPA receptor-mediated synaptic responses
Assay type: cell-based, rat (Sprague-Dawley)
Settings: percent increase in field EPSP amplitude; log dose/response; maximal response of 85% increase assumed where solubility was limiting; read-out: EC50 (field EPSP amplitude)
Method: The physiological effects of invention compounds can be tested in vitro with slices of rat hippocampus as follows. Excitatory responses (field EPSPs) are measured in hippocampal slices which are maintained in a recording chamber continuously perfused with artificial cerebrospinal fluid (ACSF). […]
Please express pEC50 as -log10 of the molar concentration.

O=C(c1ccc2c(c1)OCCO2)N1CC=CCC1 [Invention Compound I]: 3.30
O=C(c1ccc2ocnc2c1)N1CC=CCC1 [Invention Compound IX]: 2.40
O=C(c1ccc2c(c1)OCO2)N1CCCCC1 [Invention Compound II]: 2.82
CC1Oc2ccc(C(=O)N3CCCCC3)cc2O1 (racemic) [Invention Compound V]: 2.96
O=C(c1ccc2ncoc2c1)N1CC=CCC1 [Invention Compound XI]: 2.52

Reported pEC50 ( O=C(c1ccc2c(c1)OCO2)N1CCCC1 [Invention Compound VI] ) = 2.92

Reported pEC50 ( O=C(c1ccc2[nH]cnc2c1)N1CC=CCC1 [Invention Compound XII] ) = 2.30

Reported pEC50 ( O=C(c1ccc2nccnc2c1)N1CCCCC1 [Invention Compound XIV, 1-(quinoxalin-6-ylcarbonyl)-piperidine] ) = 3.52

Reported pEC50 ( O=C(c1ccc2c(c1)OCCO2)N1CC=CC1 [Invention Compound VIII] ) = 2.52

Reported pEC50 ( O=C(c1ccc2nccnc2c1)N1CC=CCC1 [Invention Compound XIII] ) = 4.30

Reported pEC50 ( O=C(c1ccc2c(c1)OCO2)N1CC=CCC1 [Invention Compound III] ) = 3.10

Reported pEC50 ( O=C(c1ccc2c(c1)OCO2)N1CCCCCC1 [Invention Compound VII] ) = 2.40

Reported pEC50 ( CN(C)c1ccc(C(=O)N2CC=CCC2)cc1 [Invention Compound XV] ) = 2.77
